Where do the numbers come from? From paper PMC9032457.

assay system: α-glucosidase (Saccharomyces cerevisiae)
Construct: purchased Sigma-Aldrich
experiment description: α-Glucosidase inhibition assay (pNPG substrate)
Assay type: biochemical
test context: pNPG 2.5 mM, pH 6.8, 37 °C; read-out: IC50 against α-glucosidase
measurement kind: IC50
Write the numeric value and append its unit.

Enquiry: Input C=C(C)[C@@H]1CC[C@]2(C(=O)O)CC[C@]3(C)[C@H](CC[C@@H]4[C@@]5(C)CC[C@H](O)C(C)(C)[C@@H]5CC[C@]43C)[C@@H]12 [BA, betulinic acid] , output reported IC50.
Return: 16.8 µM

----------
assay system: α-glucosidase (Saccharomyces cerevisiae, UniProt P53341)
Sequence (P53341 whole entry): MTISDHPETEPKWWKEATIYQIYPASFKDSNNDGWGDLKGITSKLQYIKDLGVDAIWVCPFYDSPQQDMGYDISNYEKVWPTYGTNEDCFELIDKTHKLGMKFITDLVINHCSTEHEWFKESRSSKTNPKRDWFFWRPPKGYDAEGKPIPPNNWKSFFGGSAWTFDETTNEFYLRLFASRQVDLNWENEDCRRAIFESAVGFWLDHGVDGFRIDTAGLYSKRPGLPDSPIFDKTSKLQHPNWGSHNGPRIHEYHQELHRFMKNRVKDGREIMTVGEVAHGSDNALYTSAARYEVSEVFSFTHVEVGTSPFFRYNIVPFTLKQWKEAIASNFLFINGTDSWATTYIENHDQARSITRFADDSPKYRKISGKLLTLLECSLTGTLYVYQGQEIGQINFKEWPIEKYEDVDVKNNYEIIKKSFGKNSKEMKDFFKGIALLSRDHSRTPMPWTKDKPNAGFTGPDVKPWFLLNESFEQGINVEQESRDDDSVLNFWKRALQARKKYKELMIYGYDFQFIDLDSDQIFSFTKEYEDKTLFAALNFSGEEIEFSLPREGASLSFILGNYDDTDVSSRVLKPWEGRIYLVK
measurement kind: Kd (µM)
Number only, in µM; omit the unit.

Enquiry: Answer with Kd of C=C(C)[C@@H]1CC[C@]2(C(=O)O)CC[C@]3(C)[C@H](CC[C@@H]4[C@@]5(C)CC[C@H](O)C(C)(C)[C@@H]5CC[C@]43C)[C@@H]12 [BA, betulinic acid] measured for α-glucosidase (Saccharomyces cerevisiae, UniProt P53341).
Return: 55.3
